readout.kind: melting point

smiles.code | readout.kind | result
CCCCCNC1=CC(=O)c2c(OC)ccc(OC)c2C1=O | melting point | 102 to 103 °C

Kindly review the next compound as well.
Form field: reported melting point of `COc1ccc(OC)c2c1C(=O)C=C(SCCCCO)C2=O`
122 to 123 °C

----------
readout.kind: melting point

molecule | readout.kind | result
CCCCCCSC1=CC(=O)c2ccccc2C1=O [Compound 1f, 2-hexylthio-1,4-naphthoquinone] | melting point | 101 to 102 °C

Form field: reported melting point of COc1ccc(OC)c2c1C(=O)C=C(SCCCCCCCCCCC(=O)O)C2=O [Compound 5p]
146 to 147 °C

How about this molecule: CCCCCCCSC1=CC(=O)c2ccccc2C1=O [Compound 1g, 2-heptylthio-1,4-naphthoquinone]
114 to 115 °C

How about this molecule: CCCCCCCCCCNC1=CC(=O)c2c(OC)ccc(OC)c2C1=O [Compound 5j]
86 to 87 °C

How about this molecule: CCCCCCCCNC1=CC(=O)c2c(OC)ccc(OC)c2C1=O [Compound 5h]
81 to 82 °C

How about this molecule: CCNC1=CC(=O)c2c(OC)ccc(OC)c2C1=O [Compound 5b]
172 to 173 °C

How about this molecule: CCCCNC1=CC(=O)c2c(OC)ccc(OC)c2C1=O [Compound 5d]
104 to 105 °C

How about this molecule: COc1ccc(OC)c2c1C(=O)C=C(SCCO)C2=O [Compound 5k]
117 to 118 °C

How about this molecule: CCCCCCCNC1=CC(=O)c2c(OC)ccc(OC)c2C1=O [Compound 5g]
74 to 75 °C

Cited source for all entries: patent US9400281B2
